Assay: photoluminescence quantum yield (fraction); solvent given as SMILES
Conditions: in ClCCl
The entries below are paired with their reported photoluminescence quantum yield.
Answer field: number only, no words.

Some solved entries appear below for comparison.
Prompt: Return the recorded photoluminescence quantum yield value; entry: CC1=CC(C)=[N+]2C1=C(c1c(-c3ccccn3)nc3ccccn13)c1c(C)cc(C)n1[B-]2(F)F
Response: 0.635

Prompt: Given the compound CC(C)(C)c1ccc(-c2c3c(c(-c4ccc(C(C)(C)C)cc4)c4cc5ccccc5cc24)Cc2c(c(-c4ccc(C(C)(C)C)cc4)c4cc5ccccc5cc4c2-c2ccc(C(C)(C)C)cc2)C3)cc1 , write its reported photoluminescence quantum yield.
Response: 0.15

Prompt: Read the entry COc1ccc(-c2ncccn2)cc1 and write its reported photoluminescence quantum yield.
Response: 0.01

Prompt: Determine its reported photoluminescence quantum yield: COc1ccc(/C=C/c2nc(/C=C/c3ccc(N(c4ccccc4)c4ccccc4)cc3)cc(/C=C/c3ccc(N(c4ccccc4)c4ccccc4)cc3)n2)cc1
Response: 0.91

Prompt: Entry O=Cc1cnc(-c2c3ccccc3cc3ccccc23)nc1 needs its photoluminescence quantum yield filled in; supply it.
Response: 0.28

Prompt: Identify measured photoluminescence quantum yield associated with Cc1ccc2nc3cc4ccccc4cc3c(-c3ccccc3)c2c1
Response: 0.47

Continuing:
Prompt: Read off the recorded photoluminescence quantum yield for CC(C)c1ccc2ccc3cccc4ccc1c2c34
Response: 0.41

Prompt: Consider the compound COC(=O)c1[nH]c(-c2ccc([N+](=O)[O-])cc2)c2nnc3ccc(OC)cc3c12 . State its measured photoluminescence quantum yield.
Response: 0.262

Prompt: Identify the reported photoluminescence quantum yield for the following entry. CCCCOc1ccc(/C=C/C=C/C=C/c2ccc([N+](=O)[O-])cc2)cc1
Response: 0.06

###

Assay: photoluminescence quantum yield (fraction); solvent given as SMILES
Conditions: in CCOCC
Quantity Name: photoluminescence quantum yield

Consider the worked cases shown below.
Prompt: Give photoluminescence quantum yield for Cc1ccc(C)n1-c1ccc(C#N)cc1
Response: 0.019

Prompt: Consider the compound CN(C)c1ccc(/C=C/c2nc3c4ccccc4c4ccccc4c3[nH]2)cc1 and give its recorded photoluminescence quantum yield.
Response: 0.147

More entries:
Prompt: Give the reported value of photoluminescence quantum yield for this record: O=C1/C(=C/C=C/c2cc3c4c(c2)CCCN4CCC3)CC/C1=C\C=C\c1cc2c3c(c1)CCCN3CCC2
Response: 0.26

Prompt: Assign photoluminescence quantum yield to the following record: Nc1cccnc1
Response: 0.03

Prompt: Give recorded photoluminescence quantum yield. c1csc(-c2cnc(-c3cccs3)c3nonc23)c1
Response: 0.52

Prompt: Please indicate photoluminescence quantum yield recorded for CC(C)[Si]1(C(C)C)c2cc(C#N)ccc2-c2ccc(N(c3ccccc3)c3ccccc3)cc21
Response: 0.74

###

Assay: photoluminescence quantum yield (fraction); solvent given as SMILES
Details: in Cc1ccccc1
Quantity Name: photoluminescence quantum yield
Reply with the value as a number alone.

Prompt: Identify photoluminescence quantum yield associated with the molecule CCC1=C(C)C2=C(c3cc(C4=C5C(C)=C(CC)C(C)=[N+]5[B-](F)(F)n5c(C)c(CC)c(C)c54)cc(C4=C5C(C)=C(CC)C(C)=[N+]5[B-](F)(F)n5c(C)c(CC)c(C)c54)c3)c3c(C)c(CC)c(C)n3[B-](F)(F)[N+]2=C1C
Response: 0.95

Prompt: Please indicate photoluminescence quantum yield recorded for c1csc(-c2cnc(-c3cccs3)c3nonc23)c1
Response: 0.35

Prompt: Report photoluminescence quantum yield for CCN(CC)c1ccc2cc(/C=C(\C#N)c3nc4ccccc4s3)c(=O)oc2c1
Response: 0.0036

Prompt: Specify photoluminescence quantum yield for CCc1c(C)[nH]c(C2=[N+]3C(=C(C)c4c(C)c(CC)c(C)n4[B-]3(F)F)c3ccccc32)c1C and stop.
Response: 0.71

Prompt: Kindly indicate its recorded photoluminescence quantum yield. Item: Cc1ccc(-n2c3ccccc3c3cc(C(=C(C#N)C#N)c4ccccc4)ccc32)cc1
Response: 0.14

***
Prompt: Give the reported value of photoluminescence quantum yield for this record: Cc1ccccc1[B-]1(c2ccccc2C)n2nc(C(F)(F)F)cc2-c2c3ccccc3cc[n+]21
Response: 0.0259

Prompt: Look up photoluminescence quantum yield of CCn1c2ccccc2c2cc(-c3cc(-c4ccc5c(c4)c4ccccc4n5CC)ncn3)ccc21 and report it.
Response: 0.73

Prompt: Consider the molecule CC(C)(C)c1ccc2c(c1)c1cc(C(C)(C)C)ccc1n2-c1ccc(-n2c3ccc(C(C)(C)C)cc3c3cc(C(C)(C)C)ccc32)c(-c2nccnc2C#N)c1 . State its measured photoluminescence quantum yield.
Response: 0.05
